# method notes: Emetic threshold as plasma concentration in ferrets after 1.0 mg/kg oral dose
# Type: ADME, organism-based, Mustela putorius furo
# Design: dose 1 mg/kg, route oral
# reported conditions: ferret, read-out: Emesis_Cmax
measurement name: Cmax (nM)
Unit nM implied. Number only.

Ask: Supply Cmax value. Item: `COc1cccc(-c2cc(Cc3ccncc3)cc3cccnc23)c1`
Reply: 200

====

Reported pIC50 values for a set of molecules
# experimental target: Phosphodiesterase 4 (Homo sapiens, UniProt P27815+Q08499+Q07343+Q08493)
# method notes: Inhibition of LPS-induced TNFalpha production in human whole blood
# Assay type: functional, tissue-based
Please treat pIC50 as minus the base-10 logarithm of the molar concentration.

Solved cases (5 shown):
CC(c1cc(-c2cccc(/C=C(\c3ccc(S(C)(=O)=O)cc3)c3ncc(C(C)(C)O)s3)c2)c2ncccc2c1)S(C)(=O)=O (stereo not drawn): 6.68
Cc1noc(/C(=C/c2cccc(-c3cc(C(C)C)cc4cccnc34)c2)c2ccc(S(C)(=O)=O)cc2)n1: 6.59
CC(C)NC(=O)/C(=C/c1cccc(-c2cc(C(C)(C)S(C)(=O)=O)cc3cccnc23)c1)c1ccc(S(C)(=O)=O)cc1: 6.03
CC(C)NC(=O)/C(=C\c1cccc(-c2cc(C(C)(C)C#N)cc3cccnc23)c1)c1ccc(S(C)(=O)=O)cc1: 6.68
COc1ccc([C@H](Cc2ccncc2)c2ccccc2)cc1OC1CCCC1 [CDP840]: 4.85

Ask: Report the value of pIC50 obtained on Phosphodiesterase 4 (Homo sapiens, UniProt P27815+Q08499+Q07343+Q08493) for CC(C)c1cc(-c2cccc(C(Cc3ccncc3)c3ccc(Cl)cc3)c2)c2ncccc2c1 (stereo not drawn) .
Reply: 4.51

Ask: Report the value of pIC50 obtained on Phosphodiesterase 4 (Homo sapiens, UniProt P27815+Q08499+Q07343+Q08493) for `CC(C)c1cc(-c2cccc(/C=C(/c3ccc(C(C)(C)O)cc3)c3ccc(S(C)(=O)=O)cc3)c2)c2ncccc2c1` .
Reply: 6.21

Ask: Report the value of pIC50 obtained on Phosphodiesterase 4 (Homo sapiens, UniProt P27815+Q08499+Q07343+Q08493) for `CC(C)NC(=O)/C(=C/c1cccc(-c2cc(C(C)(C)C#N)cc3cccnc23)c1)c1ccc(S(C)(=O)=O)cc1` .
Reply: 7.15

====

# experimental target: Phosphodiesterase 4 (Homo sapiens, UniProt P27815+Q08499+Q07343+Q08493)
# method notes: Inhibition of LPS-induced TNFalpha production in human whole blood
# Assay type: functional, tissue-based
measurement name: IC50 (µM)
Unit µM implied. Number only.

Solved cases (6 shown):
O=S(=O)(Nc1cccc(-c2cc(Cc3ccncc3)cc3cccnc23)c1)c1ccccc1: 7.8
CC(C)NC(=O)/C(=C/c1cccc(-c2cc(C(C)C)cc3cccnc23)c1)c1ccc(S(C)(=O)=O)cc1: 0.14
CC(C)c1cc(-c2cccc(CC(c3ccncc3)C(C)(C)O)c2)c2ncccc2c1 (stereo not given): 12
CC(C)c1cc(-c2cccc(C(Cc3cc[n+]([O-])cc3)c3ccc(Cl)cc3)c2)c2ncccc2c1 (stereo not given): 11
CC(C)c1cc(-c2cccc(/C=C(/C(=O)O)c3ccc(S(C)(=O)=O)cc3)c2)c2ncccc2c1: 1.6
[O-][n+]1cccc(C[C@@H](c2ccc(OC(F)F)c(OC3CC3)c2)c2cnc(C(O)(C(F)(F)F)C(F)(F)F)s2)c1: 0.09

Ask: Supply IC50 value. Item: `Cc1ccc(/C(=C/c2cccc(-c3cc(C(C)C)cc4cccnc34)c2)c2ccc(S(C)(=O)=O)cc2)nc1`
Reply: 0.12

Ask: Supply IC50 value. Item: `CC(C)c1cc(-c2cccc(/C=C(\c3ccc(S(C)(=O)=O)cc3)c3nccs3)c2)c2ncccc2c1`
Reply: 0.12

Ask: Supply IC50 value. Item: `COc1cccc(-c2cc(Cc3ccncc3)cc3cccnc23)c1`
Reply: 8.3

Ask: Supply IC50 value. Item: `Cc1noc(/C(=C/c2cccc(-c3cc(C(C)C)cc4cccnc34)c2)c2ccccn2)n1`
Reply: 1.2
